Reported Kd values for the following compounds.
target: S100B (Homo sapiens); construct: made in house; host or cells: Escherichia coli BL21(DE3); test: Pull-down assay with immobilized protein and LSM libraries; type: binding; conditions: H14 library; 1:1 binding assumed; read-out: Surface mapping KD (apparent)
Answer format: numeric, µM implied, no suffix.

**Q:** Observed Kd on S100B (Homo sapiens) for `CSCC[C@@H](CC(=O)N[C@H]1CCCC[C@@H]1C(N)=O)NC(=O)[C@H]1CCCC[C@@H]1NC(=O)[C@H]1CCCC[C@@H]1NC(=O)C[C@H](Cc1c[nH]c2ccccc12)NC(=O)[C@H]1CCCC[C@@H]1N` , please.
**A:** 45

**Q:** Give the reported Kd for `C[C@@H](CC(=O)N[C@H]1CCCC[C@@H]1C(N)=O)NC(=O)[C@H]1CCCC[C@@H]1NC(=O)[C@H]1CCCC[C@@H]1NC(=O)C[C@H](CCCCN)NC(=O)[C@H]1CCCC[C@@H]1N` (system: S100B (Homo sapiens)).
**A:** 319

**Q:** GET /values?readout=Kd&system=S100B (Homo sapiens)&item= `CC(C)C[C@@H](CC(=O)N[C@H]1CCCC[C@@H]1C(N)=O)NC(=O)[C@H]1CCCC[C@@H]1NC(=O)[C@H]1CCCC[C@@H]1NC(=O)C[C@H](Cc1ccccc1)NC(=O)[C@H]1CCCC[C@@H]1N`
**A:** 21

**Q:** Could you share what Kd was measured for `CC(C)[C@@H](CC(=O)N[C@H]1CCCC[C@@H]1C(=O)N[C@H]1CCCC[C@@H]1C(=O)N[C@@H](C)CC(=O)N[C@H]1CCCC[C@@H]1C(N)=O)NC(=O)[C@H]1CCCC[C@@H]1N` , tested on S100B (Homo sapiens)?
**A:** 299

**Q:** Tell me reported Kd for `CC(C)C[C@@H](CC(=O)N[C@H]1CCCC[C@@H]1C(N)=O)NC(=O)[C@H]1CCCC[C@@H]1NC(=O)[C@H]1CCCC[C@@H]1NC(=O)C[C@H](CCCCN)NC(=O)[C@H]1CCCC[C@@H]1N` , tested with S100B (Homo sapiens).
**A:** 80

**Q:** Provide value of Kd for this record tested with S100B (Homo sapiens): `CSCC[C@@H](CC(=O)N[C@H]1CCCC[C@@H]1C(N)=O)NC(=O)[C@H]1CCCC[C@@H]1NC(=O)[C@H]1CCCC[C@@H]1NC(=O)C[C@H](CCCCN)NC(=O)[C@H]1CCCC[C@@H]1N`
**A:** 119

**Q:** Provide the documented Kd with S100B (Homo sapiens) as the system for `CC[C@H](C)[C@@H](CC(=O)N[C@H]1CCCC[C@@H]1C(N)=O)NC(=O)[C@H]1CCCC[C@@H]1NC(=O)[C@H]1CCCC[C@@H]1NC(=O)C[C@H](Cc1ccccc1)NC(=O)[C@H]1CCCC[C@@H]1N`
**A:** 21

**Q:** Entry `CC(C)[C@@H](CC(=O)N[C@H]1CCCC[C@@H]1C(N)=O)NC(=O)[C@H]1CCCC[C@@H]1NC(=O)[C@H]1CCCC[C@@H]1NC(=O)C[C@H](CCCCN)NC(=O)[C@H]1CCCC[C@@H]1N` , system S100B (Homo sapiens): what Kd was measured?
**A:** 102

----------
Entries and their Kd values follow.
Biological target: S100B (Homo sapiens)
Construct: made in house; host or cells: Escherichia coli BL21(DE3)
Sequence (P04271 1-92): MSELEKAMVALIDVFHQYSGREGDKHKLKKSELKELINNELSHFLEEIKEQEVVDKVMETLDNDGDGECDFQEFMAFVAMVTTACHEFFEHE
Assay: Pull-down assay with immobilized protein and LSM libraries
Format: binding
Conditions: H14 library; 1:1 binding assumed; read-out: Surface mapping KD (apparent)
Give the value in µM but do not write µM after it.

Please review the entries below; each comes with its answer.
# molecule, Kd, µM
rows = [
    ("CC[C@H](C)[C@@H](CC(=O)N[C@H]1CCCC[C@@H]1C(N)=O)NC(=O)[C@H]1CCCC[C@@H]1NC(=O)[C@H]1CCCC[C@@H]1NC(=O)C[C@H](CO)NC(=O)[C@H]1CCCC[C@@H]1N [H14 SI]", 380),
    ("C[C@@H](CC(=O)N[C@H]1CCCC[C@@H]1C(=O)N[C@H]1CCCC[C@@H]1C(=O)N[C@@H](CCCNC(=N)N)CC(=O)N[C@H]1CCCC[C@@H]1C(N)=O)NC(=O)[C@H]1CCCC[C@@H]1N [H14 AR]", 126),
    ("CSCC[C@@H](CC(=O)N[C@H]1CCCC[C@@H]1C(N)=O)NC(=O)[C@H]1CCCC[C@@H]1NC(=O)[C@H]1CCCC[C@@H]1NC(=O)C[C@H](CC(C)C)NC(=O)[C@H]1CCCC[C@@H]1N [H14 LM]", 67),
    ("NCCCC[C@@H](CC(=O)N[C@H]1CCCC[C@@H]1C(N)=O)NC(=O)[C@H]1CCCC[C@@H]1NC(=O)[C@H]1CCCC[C@@H]1NC(=O)C[C@H](Cc1ccc(O)cc1)NC(=O)[C@H]1CCCC[C@@H]1N [H14 YK]", 89),
]

Here is another molecule to look at.
**Q:** Test system S100B (Homo sapiens); read-out Kd; what value for C[C@@H](O)[C@@H](CC(=O)N[C@H]1CCCC[C@@H]1C(N)=O)NC(=O)[C@H]1CCCC[C@@H]1NC(=O)[C@H]1CCCC[C@@H]1NC(=O)C[C@H](Cc1c[nH]c2ccccc12)NC(=O)[C@H]1CCCC[C@@H]1N [H14 WT] ?
**A:** 107
